Biological target: BRAF G466V (Homo sapiens, UniProt P15056, G466V)
Construct: Horizon Discovery (HCT-116 BRAF−/− cells); host or cells: HCT-116 BRAF−/− cells, clone 8, lentiviral transduction
Sequence (P15056 whole entry G466V): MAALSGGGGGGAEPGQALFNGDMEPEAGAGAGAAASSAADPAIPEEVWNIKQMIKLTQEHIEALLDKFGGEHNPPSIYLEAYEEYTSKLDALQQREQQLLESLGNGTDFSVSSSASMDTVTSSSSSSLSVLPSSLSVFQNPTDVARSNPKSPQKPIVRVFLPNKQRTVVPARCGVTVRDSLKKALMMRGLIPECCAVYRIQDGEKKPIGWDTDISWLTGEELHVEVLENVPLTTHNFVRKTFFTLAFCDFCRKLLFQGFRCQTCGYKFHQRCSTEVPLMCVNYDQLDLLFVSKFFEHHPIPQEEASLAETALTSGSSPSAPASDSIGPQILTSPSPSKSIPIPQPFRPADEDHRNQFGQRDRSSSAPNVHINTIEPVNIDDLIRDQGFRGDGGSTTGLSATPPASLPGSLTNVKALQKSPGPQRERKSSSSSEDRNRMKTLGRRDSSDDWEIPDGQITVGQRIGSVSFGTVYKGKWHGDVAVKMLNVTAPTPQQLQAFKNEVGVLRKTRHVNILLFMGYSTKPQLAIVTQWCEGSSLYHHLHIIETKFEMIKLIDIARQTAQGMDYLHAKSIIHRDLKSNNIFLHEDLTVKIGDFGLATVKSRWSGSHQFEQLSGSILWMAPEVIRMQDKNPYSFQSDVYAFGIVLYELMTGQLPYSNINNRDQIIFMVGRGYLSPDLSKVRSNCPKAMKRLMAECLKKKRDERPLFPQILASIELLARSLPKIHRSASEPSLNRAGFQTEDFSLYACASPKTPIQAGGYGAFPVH
Experiment: BRAF HiBiT degradation assay, C-terminal HiBiT-tagged BRAF G466V overexpressed in HCT-116 BRAF−/− cells (clone 8), Nano-Glo HiBiT Lytic assay
Assay type: cell-based
Details: BRAF G466V (Class 3), HCT-116 BRAF−/− cells; DC50 at 50% degradation
endpoint name: DC50

Query: Return reported DC50 for target or system BRAF G466V (Homo sapiens, UniProt P15056, G466V), item CCCS(=O)(=O)Nc1cccc(-c2nc(C3CCN(C(=O)CC4CCN(C5CCN(c6ccc7c(c6)C(=O)N(C6CCC(=O)NC6=O)C7=O)CC5)CC4)CC3)sc2-c2ccnc(N)n2)c1F (racemic) .
Result: > 500 nM

***
Query: Lab note: record DC50 of O=C1CCN(c2ccc(N3CCC(CN4CCN(c5ccc(-n6cc(-c7cc(Cl)cc(NS(=O)(=O)N8CC(F)C8)c7F)c(-c7ccncc7)n6)c(F)c5)CC4)CC3)cc2)C(=O)N1 tested on BRAF G466V (Homo sapiens, UniProt P15056, G466V).
Result: < 10 nM

Query: GET DC50 | system: BRAF G466V (Homo sapiens, UniProt P15056, G466V) | item: C[C@@H]1CN(c2ccc(-n3cc(-c4cc(Cl)cc(NS(=O)(=O)N5CC[C@@H](F)C5)c4F)c(-c4ccncc4)n3)nc2)CCN1CC1CCN(c2ccc([C@H]3CCC(=O)NC3=O)cc2)CC1
Result: < 10 nM

###

Biological target: BRAF V600E (Homo sapiens, UniProt P15056, V600E)
Construct: endogenous C-terminal HiBiT fusion tag on BRAF V600E allele; endogenous in cells; host or cells: A375 clone 1F10 (CRISPR-Cas9 knock-in of the HiBiT tag; parental A375 from ATCC)
Sequence (P15056 whole entry V600E, the tested form may be a part): as the sequence (P15056 whole entry G466V) above, with V466G, V600E counted along it
Experiment: BRAF HiBiT degradation assay, C-terminal HiBiT-tagged BRAF V600E A375 cells (clone 1F10), Nano-Glo HiBiT Lytic assay
Assay type: cell-based
Details: A375 (BRAF V600E, Class 1); DC50 at 50% degradation
endpoint name: DC50

Solved cases (2 shown):
Query: Consider the molecule O=C1CC[C@H](c2ccc(N3CCC(CN4CCN(c5ccc(-n6cc(-c7cc(Cl)cc(NS(=O)(=O)N8CC(F)C8)c7F)c(-c7ccncc7)n6)cc5)CC4)CC3)nc2)C(=O)N1 . State its measured DC50.
Result: < 10 nM

Query: Give the reported value of DC50 for this record: O=C1CC[C@@H](c2ccc(N3CCC(CN4CCN(c5ccc(-n6cc(-c7cc(Cl)cc(NS(=O)(=O)N8CCCC8)c7F)c(-c7ccncc7)n6)nc5)CC4)CC3)nc2)C(=O)N1
Result: < 10 nM

Further cases:
Query: Give me measured DC50, please, for this molecule: CCCS(=O)(=O)Nc1cccc(-c2nc(C3CCN(Cc4ccc(C(=O)N[C@@H]5CCC(=O)NC5=O)cc4)CC3)sc2-c2ccnc(N)n2)c1F
Result: > 500 nM

###

Recorded Dmax, one value per entry.
Target: BRAF V600E (Homo sapiens, UniProt P15056, V600E)
Construct: endogenous C-terminal HiBiT fusion tag on BRAF V600E allele; endogenous in cells; host or cells: A375 clone 1F10 (CRISPR-Cas9 knock-in of the HiBiT tag; parental A375 from ATCC)
Assay: BRAF HiBiT degradation assay, C-terminal HiBiT-tagged BRAF V600E A375 cells (clone 1F10), Nano-Glo HiBiT Lytic assay
Assay type: cell-based
Conditions: A-375; A375 (BRAF V600E, Class 1); observed Dmax, % protein degraded relative to DMSO control

These solved cases illustrate the format of a correct answer.
Query: Hello, please tell me recorded Dmax for this one: CCN(C)S(=O)(=O)Nc1cc(Cl)cc(-c2cn(-c3ccc(N4CCN(CC5CCN(c6ccc([C@H]7CCC(=O)NC7=O)cn6)CC5)CC4)cc3)nc2-c2ccncc2)c1F
Result: > 70%

Query: Return the recorded Dmax value; entry: CCCS(=O)(=O)Nc1cccc(-c2nc(C3CCN(C(=O)CC4CCN(C5CCN(c6ccc7c(c6)C(=O)N(C6CCC(=O)NC6=O)C7=O)CC5)CC4)CC3)sc2-c2ccnc(N)n2)c1F (racemic)
Result: > 70%

***
Query: Return reported Dmax. Input compound: CCCS(=O)(=O)Nc1cc(Cl)cc(-c2cn(-c3ccc(N4CCN(CC5CCN(c6ccc(N7CCC(=O)NC7=O)cc6)CC5)[C@H](C)C4)cc3)nc2-c2ccncc2)c1F
Result: > 70%

Query: Specify measured Dmax for O=C1CCC(N2C(=O)c3ccc(N4CC(CN5CC(c6ccc(-n7cc(-c8ccc9c(c8)CC/C9=N/O)c(-c8ccncc8)n7)cc6)C5)C4)cc3C2=O)C(=O)N1 (racemic) .
Result: > 70%

###

Entries and their measured DC50 follow.
Molecular target: BRAF V600E (Homo sapiens, UniProt P15056, V600E)
Construct: endogenous C-terminal HiBiT fusion tag on BRAF V600E allele; endogenous in cells; host or cells: A375 clone 1F10 (CRISPR-Cas9 knock-in of the HiBiT tag; parental A375 from ATCC)
Test: BRAF HiBiT degradation assay, C-terminal HiBiT-tagged BRAF V600E A375 cells (clone 1F10), Nano-Glo HiBiT Lytic assay
Type: cell-based
Conditions: A375 (BRAF V600E, Class 1); DC50 at 50% degradation

Consider the reported DC50 for these compounds:
Query: Tell me measured DC50 for CCCS(=O)(=O)Nc1cccc(-c2nc(C3CCC4(CC3)CCN(CC3CCN(c5ccc6c(c5)CN(C5CCC(=O)NC5=O)C6=O)CC3)CC4)sc2-c2ccnc(N)n2)c1F (racemic) please.
Result: < 10 nM

Query: Return DC50 (reported value) for this compound: CCCS(=O)(=O)Nc1cccc(-c2nc(C3CCN(C(=O)CC4CCN(C5CCN(c6ccc7c(c6)C(=O)N(C6CCC(=O)NC6=O)C7=O)CC5)CC4)CC3)sc2-c2ccnc(N)n2)c1F (racemic)
Result: 50 to 500 nM

Continuing:
Query: Please give the documented DC50 of CCN(C)S(=O)(=O)Nc1cc(Cl)cc(-c2cn(-c3ccc(N4CCN(CC5CCN(c6ccc(C7CCC(=O)NC7=O)cn6)CC5)CC4)cn3)nc2-c2ccncc2)c1F (racemic)
Result: < 10 nM

Query: Output measured DC50 for this item: O=C1CCC(c2ccc(N3CCC(CN4CCN(c5ccc(-n6cc(-c7cc(Cl)cc(NS(=O)(=O)N8CCCC8)c7F)c(-c7ccncc7)n6)cc5)CC4)CC3)nc2)C(=O)N1 (racemic)
Result: < 10 nM

Query: Return value of DC50 for input O=C1CCC(c2ccc(N3CCC(CN4CCN(c5ccc(-n6cc(-c7cc(Cl)cc(NS(=O)(=O)N8CC(F)C8)c7F)c(-c7ccncc7)n6)c(F)c5)CC4)CC3)nc2)C(=O)N1 (racemic) , no commentary.
Result: < 10 nM

###

Biological target: BRAF D594G (Homo sapiens, UniProt P15056, D594G)
Construct: Horizon Discovery (HCT-116 BRAF−/− cells); host or cells: HCT-116 BRAF−/− cells, clone 63, lentiviral transduction
Sequence (P15056 whole entry D594G): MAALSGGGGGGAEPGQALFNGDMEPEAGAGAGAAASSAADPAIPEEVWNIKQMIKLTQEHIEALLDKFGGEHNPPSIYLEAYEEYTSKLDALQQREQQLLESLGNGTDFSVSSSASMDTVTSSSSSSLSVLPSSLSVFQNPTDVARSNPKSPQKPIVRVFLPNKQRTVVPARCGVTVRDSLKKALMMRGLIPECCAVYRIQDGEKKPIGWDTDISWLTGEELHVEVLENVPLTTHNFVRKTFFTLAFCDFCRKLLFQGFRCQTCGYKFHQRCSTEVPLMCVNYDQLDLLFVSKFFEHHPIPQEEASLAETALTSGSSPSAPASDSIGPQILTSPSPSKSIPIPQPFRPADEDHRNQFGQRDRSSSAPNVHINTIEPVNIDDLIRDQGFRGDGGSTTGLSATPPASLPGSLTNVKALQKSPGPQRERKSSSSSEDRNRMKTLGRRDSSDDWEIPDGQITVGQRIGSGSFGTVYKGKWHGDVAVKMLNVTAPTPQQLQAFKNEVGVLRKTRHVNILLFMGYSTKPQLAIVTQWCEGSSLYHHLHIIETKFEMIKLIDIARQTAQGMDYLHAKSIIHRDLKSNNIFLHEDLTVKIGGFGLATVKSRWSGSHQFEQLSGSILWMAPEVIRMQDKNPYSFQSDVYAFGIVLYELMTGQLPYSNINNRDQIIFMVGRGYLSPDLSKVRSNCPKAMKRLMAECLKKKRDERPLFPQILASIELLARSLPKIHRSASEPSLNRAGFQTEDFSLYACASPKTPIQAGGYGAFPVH
Test: BRAF HiBiT degradation assay, C-terminal HiBiT-tagged BRAF D594G overexpressed in HCT-116 BRAF−/− cells (clone 63), Nano-Glo HiBiT Lytic assay
Assay type: cell-based
Details: BRAF D594G (Class 3), HCT-116 BRAF−/− cells; DC50 at 50% degradation
endpoint name: DC50

Query: Indicate its recorded DC50; the compound in question is O=C1CCC(c2ccc(N3CCC(CN4CCN(c5ccc(-n6cc(-c7cc(C(F)F)cc(NS(=O)(=O)N8CCCC8)c7F)c(-c7ccncc7)n6)cc5)CC4)CC3)nc2)C(=O)N1 (racemic) [Compound 350]
Result: < 10 nM

Query: Identify measured DC50 corresponding to CCCS(=O)(=O)Nc1cccc(-c2nc(C3CCN(C(=O)CC4CCN(C5CCN(c6ccc7c(c6)C(=O)N(C6CCC(=O)NC6=O)C7=O)CC5)CC4)CC3)sc2-c2ccnc(N)n2)c1F (racemic) [Compound 250]
Result: > 500 nM

Query: Please supply the value of reported DC50 for the item O=C1CCN(c2ccc(N3CCC(CN4CCN(c5ccc(-n6cc(-c7cc(F)cc(NS(=O)(=O)N8CCCC8)c7F)c(-c7ccncc7)n6)cc5)CC4)CC3)cc2)C(=O)N1 [Compound 300]
Result: < 10 nM

###

Target: BRAF V600E (Homo sapiens, UniProt P15056, V600E)
Construct: endogenous C-terminal HiBiT fusion tag on BRAF V600E allele; endogenous in cells; host or cells: A375 clone 1F10 (CRISPR-Cas9 knock-in of the HiBiT tag; parental A375 from ATCC)
Assay: BRAF HiBiT degradation assay, C-terminal HiBiT-tagged BRAF V600E A375 cells (clone 1F10), Nano-Glo HiBiT Lytic assay
Assay type: cell-based
Details: A375 (BRAF V600E); DC50 at 50%: fitted conc. at Y=50
Each entry below lists one item and its recorded DC50 value.

In the examples that follow, each entry is paired with its recorded DC50.
Query: Name the recorded DC50 of the item CCCS(=O)(=O)Nc1cccc(-c2nc(C(C)(C)C)sc2-c2ccnc(Nc3ccc(N4CCN(C(=O)CC5CCN(c6ccc(NC7CCC(=O)NC7=O)cc6)CC5)CC4)c(F)c3)n2)c1F (racemic) in your answer.
Result: < 10 nM

Query: State its DC50 for this compound: CCCS(=O)(=O)Nc1cccc(-c2nc(-c3ccc(N4CCN(CC5CCN(c6ccc(C7CCC(=O)NC7=O)cn6)CC5)CC4)cc3)sc2-c2ccnc(N)n2)c1F (racemic)
Result: < 10 nM

Query: Provide one value: measured DC50 of CCCS(=O)(=O)Nc1cccc(-c2nc(C)sc2-c2ccnc(Nc3ccc(C4CCN(C(=O)C5CCN(c6ccc(C7CCC(=O)NC7=O)cn6)CC5)CC4)cc3)n2)c1F (racemic)
Result: 10 to 50 nM

Query: Check the records and state DC50 for CCN(C)S(=O)(=O)Nc1cccc(-c2nc(C(C)(C)C)sc2-c2ccnc(Nc3ccc(N4CCN(C(=O)C5CCN(c6ccc(C7CCC(=O)NC7=O)cc6)CC5)CC4)cn3)n2)c1F (racemic)
Result: < 10 nM

Query: Indicate its recorded DC50; the compound in question is CCCS(=O)(=O)Nc1cccc(-c2nc(C(C)(C)C)sc2-c2ccnc(Nc3cccc(OC4CCN(C(=O)C5CCN(c6cccc(C7CCC(=O)NC7=O)c6)CC5)CC4)c3)n2)c1F (racemic)
Result: 10 to 50 nM

New cases:
Query: State its DC50: CCCS(=O)(=O)Nc1cccc(-c2cn(-c3ccc(N4CCN(CC5CCN(c6ccc([C@H]7CCC(=O)NC7=O)cn6)CC5)CC4)cc3)nc2-c2ccncc2)c1F
Result: 50 to 500 nM

Query: Tell me measured DC50 for CCCS(=O)(=O)Nc1cccc(-c2nc(C(C)(C)C)sc2-c2ccnc(Nc3cnn(CC4CCN(C(=O)C5CCN(c6ccc(C(=O)NC7CCC(=O)NC7=O)nc6)CC5)CC4)c3)n2)c1F (racemic) please.
Result: 50 to 500 nM

Query: Answer with the recorded DC50 of CCCS(=O)(=O)Nc1cccc(-c2nc(C3CCN(C(=O)C4(C)CCN(C(=O)C5CCN(c6ccc(C7CCC(=O)NC7=O)cc6)CC5)CC4)CC3)sc2-c2ccnc(N)n2)c1F (racemic) only.
Result: < 10 nM

Query: Please report DC50 for the following compound: CCN(C)S(=O)(=O)Nc1cccc(-c2nc(C(C)(C)C)sc2-c2ccnc(Nc3ccc(N4CCN(C(=O)C5(C)CCN(c6ccc(C7CCC(=O)NC7=O)cn6)CC5)CC4)cn3)n2)c1F (racemic)
Result: < 10 nM

Query: Look up and state reported DC50 for CCCS(=O)(=O)Nc1cccc(-c2nc(C(C)(C)C)sc2-c2ccnc(Nc3ccc(C4CCN(C(=O)C5CCN(c6ccc(C7CCC(=O)NC7=O)cn6)CC5)CC4)cc3)n2)c1F (racemic)
Result: 10 to 50 nM
